Value source: patent US20220073643A1

# system-under-test: human Claudin18.2 (human)
# assay-overview: cell-based or functional assay
measurement-kind: CDC % Relative activity (%)
Kindly answer with a numeric value in %, unit omitted.

| binder | CDC % Relative activity (%) |
| --- | --- |
| 232D7C8 (antibody, V domains shown) VH: QAYLQQSGAELVRSGASVKMSCKASGYTFTSHNMHWVKQTPGQGLEWIGYIYPGNGGTNYNQKFKGKATLTADTSSSTAYMQISSLTSEDSAVYFCARDYFGNSFAYWGQGTLVTVSA VL: DILMTQSPSSLTATAGEKVSMSCKSSQSLFNSGNQRNYLTWYQQRPGQPPKLLIYWASTRESGVPDRFTGSGSGTDFTLTISSVQAEDLAVYYCQNDYRYPFTFGAGTKLELK | 88.9 |

Asked: For the binder shown here, 292D9C7 (antibody, V domains shown) VH: QVQLKESGPGLVAPSQSLSITCTVSGFSLTDYGVSWIRQPPGKGLEWLGVIWGGGNAYYNSALKSRLSISKDNSKSQVFLKMNSLRTDDTAMYYCAKNGLLRYLDYWGQGSTLTVSS VL: DTVMTQSPSSLTVTAGEKVTMSCKSSQSLLNSGNQKNYLTWYQQKPGQPPKLLIYWASTRESGVPDRFTGSGSGRDFTLTISSVQVEDLAIYYCQNDYYYPLTFGAGTKVELK , give the reported CDC % Relative activity.
Given back: 151
